molecular target: delF508-CFTR (Homo sapiens, UniProt P13569, DEL508-508); construct: Unaltered CFBE41o− cells were used as the model; endogenous in cells; host or cells: CFBE41o- human CF bronchial epithelial cells (delF508 homozygous, not overexpressing); assay: SPQ halide-sensitive fluorescence dye profiling assay (rescue of halide efflux); assay type: cell-based; conditions: VX-809 at 3 μM treated as 100% efficacy
Sequence (P13569 with tags, fused parts or gaps DEL508-508): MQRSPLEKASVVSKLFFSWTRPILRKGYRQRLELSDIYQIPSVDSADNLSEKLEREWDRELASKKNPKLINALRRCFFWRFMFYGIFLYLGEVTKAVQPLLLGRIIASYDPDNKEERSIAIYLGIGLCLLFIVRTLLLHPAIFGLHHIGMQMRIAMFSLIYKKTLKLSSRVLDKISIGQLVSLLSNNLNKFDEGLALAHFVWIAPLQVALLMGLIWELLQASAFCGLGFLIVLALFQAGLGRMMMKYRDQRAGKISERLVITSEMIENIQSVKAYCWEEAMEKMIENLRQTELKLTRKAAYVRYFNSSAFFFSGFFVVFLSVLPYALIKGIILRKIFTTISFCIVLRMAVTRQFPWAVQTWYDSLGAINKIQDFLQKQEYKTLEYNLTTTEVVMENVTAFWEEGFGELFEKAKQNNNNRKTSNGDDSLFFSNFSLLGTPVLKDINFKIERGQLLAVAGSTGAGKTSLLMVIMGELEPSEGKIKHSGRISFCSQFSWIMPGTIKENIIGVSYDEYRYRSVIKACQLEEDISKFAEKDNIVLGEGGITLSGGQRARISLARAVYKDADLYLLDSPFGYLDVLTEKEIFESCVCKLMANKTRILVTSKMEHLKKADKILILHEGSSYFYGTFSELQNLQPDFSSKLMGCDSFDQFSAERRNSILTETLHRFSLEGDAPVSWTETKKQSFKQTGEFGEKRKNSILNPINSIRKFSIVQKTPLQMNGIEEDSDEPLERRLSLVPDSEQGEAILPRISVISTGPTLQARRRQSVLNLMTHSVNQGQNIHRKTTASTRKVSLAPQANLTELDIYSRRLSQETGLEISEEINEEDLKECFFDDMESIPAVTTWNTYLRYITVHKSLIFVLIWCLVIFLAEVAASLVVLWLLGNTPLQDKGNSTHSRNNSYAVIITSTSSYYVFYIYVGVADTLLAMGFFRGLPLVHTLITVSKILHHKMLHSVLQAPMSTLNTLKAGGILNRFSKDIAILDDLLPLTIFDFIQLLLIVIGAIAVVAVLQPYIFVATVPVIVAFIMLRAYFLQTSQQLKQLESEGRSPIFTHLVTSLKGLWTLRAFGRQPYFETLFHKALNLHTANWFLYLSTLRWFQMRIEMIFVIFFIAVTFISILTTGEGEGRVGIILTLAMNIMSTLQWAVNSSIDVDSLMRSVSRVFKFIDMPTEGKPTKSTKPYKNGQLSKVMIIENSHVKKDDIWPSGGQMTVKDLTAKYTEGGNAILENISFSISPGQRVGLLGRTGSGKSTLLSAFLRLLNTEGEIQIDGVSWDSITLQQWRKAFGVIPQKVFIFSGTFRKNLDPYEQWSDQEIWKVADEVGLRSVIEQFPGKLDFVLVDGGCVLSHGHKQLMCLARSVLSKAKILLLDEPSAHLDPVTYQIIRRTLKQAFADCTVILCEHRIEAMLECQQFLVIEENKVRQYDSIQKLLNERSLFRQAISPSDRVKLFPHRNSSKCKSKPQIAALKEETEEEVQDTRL
Emax strictly less than 20% = Yes. Otherwise No.

Prompt: # check: Emax < 20% for O=C(O)c1cn2ncc(-c3ccc(Cl)cc3)c2nn1
Response: Yes

* * *

target: delF508-CFTR (Homo sapiens, UniProt P13569, DEL508-508); construct: Unaltered CFBE41o− cells were used as the model; endogenous in cells; host or cells: CFBE41o- human CF bronchial epithelial cells (delF508 homozygous, not overexpressing); assay: SPQ halide-sensitive fluorescence dye profiling assay (rescue of halide efflux); format: cell-based; details: VX-809 at 3 μM treated as 100% efficacy
Please provide measured Emax for the entries that follow.
Answers are plain numbers, in %.

Worked examples, 8 compounds total:
compound: CCOC(=O)c1ccc2c(-c3ccc(Cl)c(Cl)c3)noc2n1 [Compound C-68.1]
Emax, %: 20

compound: Cc1nn2c(N)c(C(=O)O)nnc2c1-c1ccc(Cl)cc1 [Compound C-27]
Emax, %: 90

compound: Cc1nn2c(C)c(C(=O)NS(C)(=O)=O)nnc2c1-c1ccc(Cl)c(Cl)c1 [Compound C-36]
Emax, %: 50

compound: CCOC(=O)c1nnc2c(-c3ccc(Cl)cc3)c(C)nn2c1C(=O)OCC [Compound C-28.1]
Emax, %: 0

compound: CCOC(=O)c1nnc2c(-c3ccc(Cl)c(Cl)c3)c(C)nn2c1C [Compound C-15]
Emax, %: 120

compound: Cc1nn2c(C)c(C(=O)O)nnc2c1Cc1ccccc1 [Compound C-52]
Emax, %: 70

compound: CCCOc1cc(-c2c(C)nn3c(C)c(C(=O)O)nnc23)ccc1Cl [Compound C-72]
Emax, %: 90

compound: COc1ccc(-c2c(C)nn3c(C)c(C(=O)O)nnc23)cc1OC [Compound C-6]
Emax, %: 170

I have 7 compounds here; please give me Emax for each one.
1. CCCOc1ccc(-c2c(C)nn3c(C)c(C(=O)O)nnc23)cc1 [Compound C-8]
2. CCOC(=O)c1nnc2c(-c3ccc(Cl)cc3)cnn2c1C [Compound C-12]
3. CCCOc1ccc(-c2c(C)nn3c(C)c(C(=O)OCC)nnc23)cc1 [Compound C-18]
4. CCOc1ccc(-c2c(C)nn3c(C)c(C(=O)O)nnc23)cc1Cl [Compound C-60]
5. Cc1nn2c(C)c(C(=O)OC3CCCC3)nnc2c1-c1ccc(Cl)c(Cl)c1 [Compound C-50]
6. Cc1nn2c(C)c(-c3nnco3)nnc2c1-c1ccc(Cl)c(Cl)c1 [Compound C-43]
7. COc1cc(-c2c(C)nn3c(C)c(C(=O)O)nnc23)ccc1Cl [Compound C-59.1]

Response:
1: 155; 2: 120; 3: 20; 4: 0; 5: 30; 6: 50; 7: 40

// for each compound in input: emit Emax
1. CCOC(=O)c1c(C(=O)OC(C)(C)C)nnc2c(-c3ccc(Cl)c(Cl)c3)c(C)nn12 [Compound C-26.2]
2. Cc1nn2cc(C(=O)O)nnc2c1-c1ccc(Cl)cc1 [Compound C-3]
3. CCOC(=O)c1cn2nc(C)c(-c3ccc(Cl)cc3)c2nn1 [Compound C-13]
4. CCCCOc1ccc(-c2c(C)nn3c(C)c(C(=O)O)nnc23)cc1 [Compound C-54]

Response:
1: 0; 2: 200; 3: 0; 4: 125

For each listed entry, give its Emax.
1. Cc1nn2c(C)c(CS(C)(=O)=O)nnc2c1-c1ccc(Cl)c(Cl)c1 [Compound C-70]
2. COC(=O)C(=O)c1nnc2c(-c3ccc(Cl)c(Cl)c3)c(C)nn2c1C [Compound C-32.1]
3. CCOC(=O)c1cn2ncc(-c3ccc(Cl)cc3)c2nn1 [Compound C-14]

Response:
[110, 5, 0]

Please state Emax for every compound in the list that follows.
1. Cc1nn2c(C)c(C(=O)N(C)C)nnc2c1-c1ccc(Cl)c(Cl)c1 [Compound C-31]
2. CCS(=O)(=O)Cc1nnc2c(-c3ccc(Cl)c(Cl)c3)c(C)nn2c1C [Compound C-71]

Response:
0
130

* * *

Assignment: determine reported Emax for the given molecules.
target: delF508-CFTR (Homo sapiens, UniProt P13569, DEL508-508); construct: Unaltered CFBE41o− cells were used as the model; endogenous in cells; host or cells: CFBE41o- human CF bronchial epithelial cells (delF508 homozygous, not overexpressing); assay: SPQ halide-sensitive fluorescence dye profiling assay (rescue of halide efflux); type: cell-based; conditions: VX-809 at 3 μM treated as 100% efficacy
Numbers only, in %.

Example results:
molecule: CCOc1cc(-c2c(C)nn3c(C)c(C(=O)O)nnc23)ccc1Cl [Compound C-59]
Emax [%]: 110
--
molecule: CCS(=O)(=O)N(c1nnc2c(-c3ccc(Cl)c(Cl)c3)c(C)nn2c1C)S(=O)(=O)CC [Compound C-71.1]
Emax [%]: 0
--
molecule: CCOC(=O)c1nnc2c(-c3ccc(OC)c(OC)c3)c(C)nn2c1C [Compound C-16]
Emax [%]: 80
--
molecule: Cc1nn2c(C)c(C(=O)O)cnc2c1-c1ccc(Cl)c(Cl)c1 [Compound C-45]
Emax [%]: 50
--
molecule: Cc1nn2c(C)c(C(=O)O)nnc2c1-c1ccc(Cl)cc1 [Compound C-1]
Emax [%]: 200
--
molecule: Cc1nn2c(C)c(C(=O)Oc3ccccc3)nnc2c1-c1ccc(Cl)c(Cl)c1 [Compound C-35]
Emax [%]: 100
--
molecule: Cc1c(C(=O)O)nnc2c(-c3ccc(Cl)cc3)c(-c3ccc(Cl)cc3)nn12 [Compound C-10]
Emax [%]: 40
--
molecule: Cc1nn2c(N)c(C(=O)O)nnc2c1-c1ccc(Cl)c(Cl)c1 [Compound C-25]
Emax [%]: 100

Okay, here is my list. What is Emax for each of these?
1. O=C(O)c1ccc2c(-c3ccc(Cl)c(Cl)c3)n[nH]c2n1 [Compound C-66]
2. Cc1nn2c(C)c(C(=O)O)nnc2c1-c1ccc(OC(C)(C)C)cc1 [Compound C-56]

Response:
25
20
